- assayComment: yeast display, Sf9 membrane polyspecificity reagent, FACS + sequencing; frameworks hold sequencing errors
attributeMeasured: polyreactivity (PSR sort gate)

sequenceChain	polyreactivity (PSR sort gate)
QVQLVESGGGLVQAGGSLRLSCAASGLTFYSYAMGWYRQAPGKERELVAAITWSGGGTYYADSVKGRFTISRDNAKNTVYLQMNSLKPEDTAVYYCAALSYNGVRYYYWGQGTQVTVSS	high polyreactivity
QVQLVESGGGLVQAAGSLRISCAASGRTFATNAMGWYRQAPGKERELVAVISASGGSTYYADSVKGRFTISRDNAKNTVYLQMNSLKPEDTAVYYCAADVYRRYDYWGQGTQVTVSS	high polyreactivity
QVQLVESGGGLVQAGGSLRLSCAASGSTFYPYSMGWYRQAPGKERELSTYADSVKGRFTISRDNAKNSVYLQMNSLKPEDTAVYYCAALHWRWYDYWGQGTQVTVSS	low polyreactivity
QVQLVESGGGLVQAGGSLRLSCAASGIIFSTYAMGWYRHAPWKERELVAAITRGDSTNYADSVKGRFTISRDNAKNTVYLQMNSLKPEDTAVYYCAVDKRYGRVVGRDYDYWGQGTQVTVSS	high polyreactivity

Tell me the measured polyreactivity (PSR sort gate) of QVQLVESGGGLVQAGGSLRLSCAASGSILTPYAMGWYRQAPGKERELVAAISWGDGSTYYADSVKGRFTISRDNAKNTVYLQMNSLKPEDTAVYYCAAVSYYGVDQYRITVYTYEYWGQGTQVTVSS , please.
low polyreactivity

----------
- assayComment: yeast display, Sf9 membrane polyspecificity reagent, FACS + sequencing; frameworks hold sequencing errors
attributeMeasured: polyreactivity (PSR sort gate)

Completed entries (count: 5):
sequenceChain	polyreactivity (PSR sort gate)
HVQLVESAGGLVQAGGSLRVSCAASGRTFVENAMGWYRQAPGKERELVAAITYRGGRTFYADSVKGRFTISLDNAKNTVYLQMNSLTPEETAVYYCNAVRRTGGHGDYWGHGTQVTVSS	high polyreactivity
QVQLVESGGGLVQAGGSLRLSCAASGRTFLRNAMGWYRQAPGKERELVATISWGGGSTYYADSVKGRFTISRDNAKNTVYLQMNSLKPEDTAVYYCAKQRAWSGFDYWGQGTQVTVSS	high polyreactivity
QVQLVESGGGLVQAGGSLRLSCAASGITFNYYAMGWYRQAPGKEREFVAAITRSGGRTYYADSVKGRFTISRDNAKNTVYLQMNSLKPEDTAVYYCAAGYYILYIWKFDYWGQGTQVTVSS	high polyreactivity
QVQLVESGGGLVQAGGSLRLSCAASGSTFSSNAMGWYRQAPGKERELVAAISKRGGRTYYADSVKGRFTISRDNAKNTVYLQMNSLKPEDTAVYYCAKDYSSAVDYWGQGTQVTVSS	high polyreactivity
QVQLVESGGGLVQAGGSLRLSCAASGRTFENYAMGWYRQAPGKERELVAAISKSGGSTYYADSVKGRFTISRDNAKNTVYLQMNSLKPEDTAVYYCNARPGQSGARFGYWGQGTQVTVSS	high polyreactivity

Read the next record carefully.
Tell me the measured polyreactivity (PSR sort gate) of QVQLVESGGGLVQAGGSLRLSCAASGRIFSYNAMGWYRQAPGKERELVAAISSDGSTYYADSVKGRFTISRDNAKNSVYLQMNSLKPEDTAVYYCAADTWRDGDDYWGQGTQVTVSS , please.
low polyreactivity

----------
- assayComment: yeast display, Sf9 membrane polyspecificity reagent, FACS + sequencing; frameworks hold sequencing errors
attributeMeasured: polyreactivity (PSR sort gate)

sequenceChain	polyreactivity (PSR sort gate)
QVQLVESGGGLVQAGGSLRLSCAASGGTFPYNAMGWYRQAAGKERELVAAISSSGTSTYYADSVKRRFTISRDNAKNTVYLQMNSLKPEDTAVYYCNDYFKRYDYWGQGTQVTVSS	high polyreactivity
QVQLVESGGGLVQAGGSLRLSCAASGSTFWWKTMGWYRLAPGKERELVADIRTSGGGTYYADSVKGRFTISRDNAKNNVYLQMYSLKPEDTAVYYCNADPKWEMGSWGQGTQVTVSS	low polyreactivity
QVQLVESGGGLVQAGGSLRLSCAASGRIFPLNAMGWYRQAPGKERELVAAIRNGGRTNYADSVKGRFTISPDNAKNTVYVQMNSLKPEDTAVYYCSFTLSSVLQYDSWGQGTQVTVSS	low polyreactivity
QFQLVESGGGLVQAGGSLRLSCAASGITFQYYAMGWYRQAPGKERDFVAAISWRSGRTYYADSVKGRFTISRDNAKNTVYLQMNSLKPEDTEVYYCAAVVHIQRSTRDYWGQGTQVTVSS	high polyreactivity

Read the next record carefully.
Tell me the measured polyreactivity (PSR sort gate) of QVQLVESGGGLVQAGGSLRLSCAASGRTFGYYAMGWYRQAPGKERELVAAISWRGTSTYYADSVKGRFTISRDNAKNTVYLQMNSLKPEDTAVYYCAVGRTVAHRFIAGDYWGQGTQVTVSS , please.
high polyreactivity

----------
- assayComment: yeast display, Sf9 membrane polyspecificity reagent, FACS + sequencing; frameworks hold sequencing errors
attributeMeasured: polyreactivity (PSR sort gate)

Completed entries (count: 5):
sequenceChain	polyreactivity (PSR sort gate)
QDQLVESGGGLVQAGGSLRLICAASGRTFNRYGMGWNRQATGKERELVASITSGGSTNYADSVKGRFTISRDNAKNNVYLQMNSLKLEDTAVYYCAKRSIGRYPRTYDYWGQGTQVTVSS	low polyreactivity
QVQLVESGGGLVQAGGSLRLSCAASGSTFIIYAMGWSRQAPGKERELVAAITRDGSTYADSVKRRFTISRDNAKNTVYLQMNRLKPEDTAVYYCAATSRQGYDYWGQGTEVTVSS	high polyreactivity
QVQLVESGGGLVQAGGSLRLSCAASGSIFNYYAMGWYRQAPGKEREFVADISGSGSSTYYADSVKGRFTISRDNAKNTVYLQMNSLKPEDTAVYYCNAEYYWGVGYYPYSDYGYWGQGTQVTVSS	low polyreactivity
QGQLVESGGGLVQAGGSLRLSCAAAGYTLGVNAMGWSRQAPGKERELVAAINYIDTRTYYAASVKGRFTISRDNAKNTVYLQMNSLNPEDTAVYYCAARPYVPWVKRYYYWGQGTQVTVSS	low polyreactivity
QVQLVESGGGLVQAGGSLRLSCAASGRIFYSNAMGWYRQAPGKERELVAANTSGGNTYYADSVKGRFTISRDNAKNTVYLLMNSLKPEDTAVYYCAADHYWRRSGFGYWGQGTQVTVSS	low polyreactivity

Tell me the measured polyreactivity (PSR sort gate) of QVQLVESGGGLVQAGGSLRLSCAPSGSIVRGYAMAWYRQAPGKERELVAAINSSGTRTYYADSVKGRFTISRDNAKNTVYFQLYSLKPEDSAVYYCAARAVSEYFVVPFYYWGQGTQVTVSS , please.
high polyreactivity

Proceed to QVQLVESGGGLDQAGGSLRLSCAASGRTFIYNAMGWYRQAPGKEREFVAAITWSGATTRYADSVKGRFTISRDNAKNTVYLQMNSLKPEDTAVYYCAKGGFYYYGWRSSMDYWGQGTQVTVSS
high polyreactivity

Proceed to QVQLVESGGGLVQAGGSLRLSCAASGFILRIYTMGWYRQAPGKERELVAAINWSGGRTYYADSVKGRFTISRDNAKNTVYLHMNSLKPEDTAVYYCAAVYGVSVSKYYYWGQGTQVTVSS
high polyreactivity

Proceed to QVQLEESGGGLVQAGGSLRLSCAASGRTLGYNAMGWYRQAPGKERELVAAISYGGGGTYYADSVKGRFTISRDNAKNTVYLQMNSLKPEDSAVYYCAKPRAFVGYNHWGQGTQVSVSS
low polyreactivity

Proceed to QVQLVESGGGLVQAGGSLRLSCAASGRTFYNNAMGWYRPAPGKERELVAVISGRGGSTYYADSVKGRFTISRDNAKNTVYLQMNSLKPEDTAVYYCAAGYTRPWRFTYYYWGQGTQVTVSS
high polyreactivity

Proceed to QVQLVESGGGLVQAGGSLRLSCAASGSIFRDNTMGWYRQAPGKERELVAAISYSGGGTYYADSVKGRVTISRDNAKNTVYLQMNSLKPEDTAVYYCAKRTYPWYYREIPYGYWGQGTQVTVSS
high polyreactivity

----------
- assayComment: yeast display, Sf9 membrane polyspecificity reagent, FACS + sequencing; frameworks hold sequencing errors
attributeMeasured: polyreactivity (PSR sort gate)

Completed entries (count: 5):
sequenceChain	polyreactivity (PSR sort gate)
QVQLVESGGGLVQAGGSLRLSCAASGITFTGYAMGWYRQAPGKERELVAVISETGGSTYADSVKGRFTISRDNAKNTVYLQMNSLKPEDTAVYYCAADPHDTVRHDALVELEYWGQGTQVTVSS	low polyreactivity
QVQLVESGGGLGQAGGSLRLSCAASGSIFWGNAMGWYRQAPGKESELVACIRNSGTSTYYADSVKWRFTISRDNAKNTVYLKMNSLKPVDTAVYYCAAADGRQYSRYYWRGHDYWGQGTQVTVSS	low polyreactivity
QFQLVESVGCLVQAGGSLRLSCAASGILFSWYAMGWYRQPPGKERELVAAISKGGGSTYYADSVKGRFTISRDNAKNTVYLQMNSLIPEDTAVYYCAADSSYGYGYWGQGTQVTVSS	high polyreactivity
QVQLVESGGGLVQAGGSLRLSCAASGNIFSYYAMGWYRQAPGKERELVAAISSGGSTYYADSVKGRFTISRDNAKNTVYLQMNSLKPEDTAVYYCATSYFSYFFYEYYSWGQGTQVTVSS	low polyreactivity
QVQLVESGGGLVQAGGSLRLSCAASGRTFGRYAMGWYRQAPGKERELVAAINSGSASTYYADSVKGRFTISRDNAKNTVYLEMNSLKPEDPAVYYCAKRVQQSTWYGYGIGYEYWGQGTQVTVSS	high polyreactivity

Tell me the measured polyreactivity (PSR sort gate) of QVQLVESGGGLVQAGGSLRLSCAASGSTFAYYAMGWYRQAPGKERELVAVISVSGDGTSTYYADSVKGRFTISRDNAKNTVYLQMNSLKPEDSAVYYCAAEQVLVGGHTYSLTYDYWGQGTQVTVSS , please.
low polyreactivity

Proceed to QVQLVESGGGLVQAGGSLRLSCAASGLIFYYNAMGWYRQAPGKERELVATIRGSGSSTYYADSVKGRFTISRDNAKNTVYLQMNSLKPEDTAVYYCAAKGYRCFRHGGYYFKFDYWGQGTQVTVSS
high polyreactivity

Proceed to HVQLVESGGGLVQAGGSLRISCAASGRTFGHYAMGWNRQAPGKQRELVAVISGRNGDSTYYADSVKGRFTISRDNAKNTVYLQMNSLKPVYTAVYYCAAYKPWEYDYWGQGTEVTVSS
low polyreactivity

Each recorded value in this set is attributed to the nanobody polyreactivity screen of Harvey et al. (2022).
